# assayComment: Cytotoxicity in mock-infected MT4 CMV-EGFP cells (GFP fluorescence)
# Format: cell-based
# statedConditions: human, 50% cytotoxic concentration as negative log
reportedMetric: CC50 at 3 days (µM)
Numbers only, in µM.

molecularString	CC50 at 3 days / µM
CN(C)CCCNc1ccc2nc3c4ccccc4c(=O)n(-c4ccc([N+](=O)[O-])cc4)c3n2n1	1.32
CCc1ccc(-n2c(=O)c3ccccc3c3nc4ccccn4c32)cn1	26.3
O=c1c2ccccc2c2nc3ccc(NCCO)nn3c2n1-c1ccc([N+](=O)[O-])cc1	14.8

Shifting focus to the compound that follows.
Asked: Which value of CC50 at 3 days has been reported for O=c1c2ccccc2c2nc3ccc(OP(=O)(O)O)cn3c2n1-c1ccc(Cl)nc1 in the records?
Given back: 25.7
